# measurement target: MPO (purified from human polynuclear leukocytes) (Homo sapiens)
# Construct: purified from human polynuclear leukocytes; purchased Calbiochem/EMD Biosciences; host or cells: human polynuclear leukocytes (natural source)
# Sequence (P05164 279-745 limits assumed): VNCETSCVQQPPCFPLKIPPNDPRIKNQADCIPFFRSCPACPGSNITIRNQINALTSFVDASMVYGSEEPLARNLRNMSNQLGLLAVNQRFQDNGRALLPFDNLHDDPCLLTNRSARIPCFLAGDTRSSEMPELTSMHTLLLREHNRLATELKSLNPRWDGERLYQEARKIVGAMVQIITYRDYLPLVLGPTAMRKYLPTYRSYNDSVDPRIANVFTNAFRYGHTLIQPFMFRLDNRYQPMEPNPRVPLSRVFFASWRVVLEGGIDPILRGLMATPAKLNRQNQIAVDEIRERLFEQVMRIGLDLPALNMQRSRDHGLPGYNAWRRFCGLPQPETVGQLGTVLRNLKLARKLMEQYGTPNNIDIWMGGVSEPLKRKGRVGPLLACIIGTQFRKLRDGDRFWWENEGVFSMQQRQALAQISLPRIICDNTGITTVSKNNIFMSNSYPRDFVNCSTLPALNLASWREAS
# Sequence (P05164 165-273 limits assumed): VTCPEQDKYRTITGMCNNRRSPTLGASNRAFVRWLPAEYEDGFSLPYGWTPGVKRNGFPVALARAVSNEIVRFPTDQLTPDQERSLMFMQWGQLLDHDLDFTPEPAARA
# test summary: MPO Amplex Red Activity Assay
# Assay type: biochemical
# applied conditions: Table 1, 2 μM H2O2, pH 7.4
Counter-ions that a name gives are not always drawn.
reported metric: MPO kinact/Ki

Illustrative cases are given below, each with its answer.
> print(dat)
                                   molecule  reported.metric  observed.result
1  NCCn1c(-c2ccccc2OCCO)cc(=O)[nH]c1=S [Example 53, hydrochloride]    MPO kinact/Ki   3290 1/s per M
2       CCOc1ccccc1-c1cc(=O)[nH]c(=S)n1CCOC    MPO kinact/Ki   3110 1/s per M
3  COc1ccc(-c2cc(=O)[nH]c(=S)n2Cc2ccn[nH]2)c(OC)c1    MPO kinact/Ki   2400 1/s per M
4  COc1ccc(-c2cc(=O)[nH]c(=S)n2CCNC(=O)CN)c(OC)c1 [Example 8, hydrochloride]    MPO kinact/Ki  12100 1/s per M
5  COc1ccc(C#N)cc1-c1cc(=O)[nH]c(=S)n1CC(N)=O    MPO kinact/Ki   4030 1/s per M

Checklist item: MPO kinact/Ki tested on MPO (purified from human polynuclear leukocytes) (Homo sapiens), entry COCCn1c(-c2cccc3c2OCCO3)cc(=O)[nH]c1=S , value?
4130 1/s per M

Checklist item: MPO kinact/Ki tested on MPO (purified from human polynuclear leukocytes) (Homo sapiens), entry COc1ccc(-c2cc(=O)[nH]c(=S)n2CC(=O)O)c(OC)c1 , value?
276 1/s per M

Checklist item: MPO kinact/Ki tested on MPO (purified from human polynuclear leukocytes) (Homo sapiens), entry COc1cc(OC)cc(-c2cc(=O)[nH]c(=S)n2CCN)c1 [Example 48, hydrochloride] , value?
6570 1/s per M

Checklist item: MPO kinact/Ki tested on MPO (purified from human polynuclear leukocytes) (Homo sapiens), entry NCCCn1c(-c2ccc3c(c2)OCCO3)cc(=O)[nH]c1=S [Example 76, hydrochloride] , value?
4190 1/s per M

Checklist item: MPO kinact/Ki tested on MPO (purified from human polynuclear leukocytes) (Homo sapiens), entry COCCn1c(-c2cc(Cl)ccc2OC)cc(=O)[nH]c1=S , value?
6100 1/s per M

Checklist item: MPO kinact/Ki tested on MPO (purified from human polynuclear leukocytes) (Homo sapiens), entry COCCn1c(-c2cn(C)c3ccccc23)cc(=O)[nH]c1=S , value?
7520 1/s per M

Checklist item: MPO kinact/Ki tested on MPO (purified from human polynuclear leukocytes) (Homo sapiens), entry COCCn1c(-c2ccccn2)cc(=O)[nH]c1=S , value?
619 1/s per M
